Each recorded value in this set is attributed to ChEMBL document CHEMBL3414496.

- Test system: HT-29
- assay.summary: Growth inhibition of human HT-29 cells at cytotoxic IC50 level after 3 days by trypan blue dye exclusion assay
- Format: functional
growth inhibition (GI): recorded values
Dear colleague, please return just the value in %, with no unit written.

Ask: Reported growth inhibition (GI), molecule "COc1ccc(-c2cc(/N=C3\SCC(=O)N3c3cccc(OC)c3)cs2)cc1" : ____
Result: 50

Ask: What value of growth inhibition (GI) has been reported for the following molecule? "COc1ccc(/C=C2\S/C(=N\c3csc(-c4ccc(Cl)cc4)c3)NC2=O)cc1"
Result: 90

Ask: # get_value(readout='growth inhibition (GI)', item= "CN(C)c1ccc(/C=C2\S/C(=N\c3csc(-c4ccc(Cl)cc4)c3)NC2=O)cc1" )
Result: 90

Ask: Which growth inhibition (GI) is listed for "O=C1N/C(=N/c2csc(-c3ccc(Cl)cc3)c2)S/C1=C\c1ccc2ccccc2c1" ?
Result: 50

Ask: // growth inhibition (GI) lookup, key: "O=C1N/C(=N/c2csc(-c3ccc(Cl)cc3)c2)S/C1=C\c1ccc(Br)cc1"
Result: 25

Ask: Which growth inhibition (GI) is listed for "COc1ccc(/C=C2\S/C(=N\c3csc(-c4ccc(Cl)cc4)c3)NC2=O)cc1OC" ?
Result: 90
